All values here come from patent US20250120967A1.

# assayed.system: FGFR1 (Homo sapiens)
# Sequence (P11362 22-822): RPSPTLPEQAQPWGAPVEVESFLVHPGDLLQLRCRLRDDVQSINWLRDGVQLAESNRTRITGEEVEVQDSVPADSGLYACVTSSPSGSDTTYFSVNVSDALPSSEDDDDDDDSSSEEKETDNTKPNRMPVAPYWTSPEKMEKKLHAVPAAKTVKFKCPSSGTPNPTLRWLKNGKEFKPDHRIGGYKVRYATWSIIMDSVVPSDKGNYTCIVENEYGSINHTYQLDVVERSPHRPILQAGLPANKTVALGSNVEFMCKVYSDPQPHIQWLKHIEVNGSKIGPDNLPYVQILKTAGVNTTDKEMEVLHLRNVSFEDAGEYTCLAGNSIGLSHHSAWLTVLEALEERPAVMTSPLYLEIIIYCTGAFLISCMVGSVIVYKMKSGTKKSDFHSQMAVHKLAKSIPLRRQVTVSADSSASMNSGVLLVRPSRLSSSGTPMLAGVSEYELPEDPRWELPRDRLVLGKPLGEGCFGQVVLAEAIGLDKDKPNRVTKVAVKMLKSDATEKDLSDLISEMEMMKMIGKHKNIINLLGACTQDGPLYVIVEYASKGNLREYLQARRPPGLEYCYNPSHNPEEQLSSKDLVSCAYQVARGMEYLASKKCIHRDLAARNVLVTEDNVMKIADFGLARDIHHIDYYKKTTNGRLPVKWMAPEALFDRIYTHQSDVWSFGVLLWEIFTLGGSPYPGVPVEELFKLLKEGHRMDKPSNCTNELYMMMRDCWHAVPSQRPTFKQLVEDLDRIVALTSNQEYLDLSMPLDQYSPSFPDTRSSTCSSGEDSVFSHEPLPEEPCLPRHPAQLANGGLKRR
# test.method.notes: Tyrosine kinase inhibition assay
# Type: biochemical
# test.conditions: single concentration 1.0 μM, read-out: percent inhibition
Each entry below lists one item and its recorded inhibition at 1 µM value.
measure: inhibition at 1 µM (%)

>  <compound>
COc1cc2nccc(Oc3ccc(NC(=O)C4(NC(=O)c5ccc(F)cc5)CC4)cc3F)c2cc1OC

>  <assayed.system>
FGFR1 (Homo sapiens)

>  <value.reported>
3

$$$$
>  <compound>
COc1cc2nccc(Oc3ccc(NC(=O)C4(C(=O)Nc5ccc(F)cc5)CC4)cc3F)c2cc1Oc1ccc(N)cc1F

>  <assayed.system>
FGFR1 (Homo sapiens)

>  <value.reported>
27

$$$$
>  <compound>
COc1cc2nccc(Oc3ccc(NC(=O)C4(NC(=O)c5ccc(F)cc5)CC4)cc3F)c2cc1Oc1ccc(N)cc1F

>  <assayed.system>
FGFR1 (Homo sapiens)

>  <value.reported>
1

$$$$
>  <compound>
COc1cc2nccc(Oc3ccc(NC(=O)C4(C(=O)Nc5ccc(F)cc5)CC4)cc3)c2cc1OC [Cabozantinib, reference compound]

>  <assayed.system>
FGFR1 (Homo sapiens)

>  <value.reported>
12

$$$$
>  <compound>
COc1cc2nccc(Oc3ccc(NC(=O)C4(NC(=O)c5ccc(F)cc5)CC4)cc3F)c2cc1Oc1c(F)cc(N)cc1F

>  <assayed.system>
FGFR1 (Homo sapiens)

>  <value.reported>
5

$$$$

###

# assayed.system: ITK (Homo sapiens, UniProt Q08881)
# Sequence (Q08881 whole entry): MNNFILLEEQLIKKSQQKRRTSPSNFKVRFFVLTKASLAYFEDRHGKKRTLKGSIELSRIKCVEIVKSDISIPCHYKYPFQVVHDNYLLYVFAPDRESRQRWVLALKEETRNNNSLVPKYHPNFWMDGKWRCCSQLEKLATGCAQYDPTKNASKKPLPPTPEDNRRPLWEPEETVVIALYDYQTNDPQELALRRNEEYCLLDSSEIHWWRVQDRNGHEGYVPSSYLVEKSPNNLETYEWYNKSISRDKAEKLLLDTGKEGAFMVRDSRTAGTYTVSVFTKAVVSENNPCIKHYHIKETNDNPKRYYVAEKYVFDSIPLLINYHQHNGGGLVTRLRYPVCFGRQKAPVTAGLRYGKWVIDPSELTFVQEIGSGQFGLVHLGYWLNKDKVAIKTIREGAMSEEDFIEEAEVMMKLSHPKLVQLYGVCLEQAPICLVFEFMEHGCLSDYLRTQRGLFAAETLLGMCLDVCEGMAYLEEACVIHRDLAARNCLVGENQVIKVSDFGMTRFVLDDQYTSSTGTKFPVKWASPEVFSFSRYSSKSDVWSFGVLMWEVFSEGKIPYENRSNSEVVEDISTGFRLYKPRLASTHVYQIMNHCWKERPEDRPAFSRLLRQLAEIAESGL
# test.method.notes: Tyrosine kinase inhibition assay
# Assay type: biochemical
# test.conditions: single concentration 1.0 μM, read-out: percent inhibition
Cut-off 20% on inhibition at 1 µM, inclusive. At or above means Condition met; below means Condition not met.

>  <compound>
COc1cc2nccc(Oc3ccc(NC(=O)C4(C(=O)Nc5ccc(F)cc5)CC4)cc3F)c2cc1Oc1ccc(N)cc1F

>  <qualitative.label>
Condition met

$$$$
>  <compound>
COc1cc2nccc(Oc3ccc(NC(=O)C4(NC(=O)c5ccc(F)cc5)CC4)cc3F)c2cc1Oc1ccc(N)cc1F

>  <qualitative.label>
Condition met

$$$$
>  <compound>
COc1cc2nccc(Oc3ccc(NC(=O)C4(C(=O)Nc5ccc(F)cc5)CC4)cc3)c2cc1OC [Cabozantinib, reference compound]

>  <qualitative.label>
Condition not met

$$$$
>  <compound>
COc1cc2nccc(Oc3ccc(NC(=O)C4(NC(=O)c5ccc(F)cc5)CC4)cc3F)c2cc1OC

>  <qualitative.label>
Condition not met

$$$$
>  <compound>
COc1cc2nccc(Oc3ccc(NC(=O)C4(NC(=O)c5ccc(F)cc5)CC4)cc3F)c2cc1Oc1c(F)cc(N)cc1F

>  <qualitative.label>
Condition met

$$$$

###

# assayed.system: NTRK2 (TRKB) (Homo sapiens, UniProt Q16620)
# Sequence (Q16620 32-822): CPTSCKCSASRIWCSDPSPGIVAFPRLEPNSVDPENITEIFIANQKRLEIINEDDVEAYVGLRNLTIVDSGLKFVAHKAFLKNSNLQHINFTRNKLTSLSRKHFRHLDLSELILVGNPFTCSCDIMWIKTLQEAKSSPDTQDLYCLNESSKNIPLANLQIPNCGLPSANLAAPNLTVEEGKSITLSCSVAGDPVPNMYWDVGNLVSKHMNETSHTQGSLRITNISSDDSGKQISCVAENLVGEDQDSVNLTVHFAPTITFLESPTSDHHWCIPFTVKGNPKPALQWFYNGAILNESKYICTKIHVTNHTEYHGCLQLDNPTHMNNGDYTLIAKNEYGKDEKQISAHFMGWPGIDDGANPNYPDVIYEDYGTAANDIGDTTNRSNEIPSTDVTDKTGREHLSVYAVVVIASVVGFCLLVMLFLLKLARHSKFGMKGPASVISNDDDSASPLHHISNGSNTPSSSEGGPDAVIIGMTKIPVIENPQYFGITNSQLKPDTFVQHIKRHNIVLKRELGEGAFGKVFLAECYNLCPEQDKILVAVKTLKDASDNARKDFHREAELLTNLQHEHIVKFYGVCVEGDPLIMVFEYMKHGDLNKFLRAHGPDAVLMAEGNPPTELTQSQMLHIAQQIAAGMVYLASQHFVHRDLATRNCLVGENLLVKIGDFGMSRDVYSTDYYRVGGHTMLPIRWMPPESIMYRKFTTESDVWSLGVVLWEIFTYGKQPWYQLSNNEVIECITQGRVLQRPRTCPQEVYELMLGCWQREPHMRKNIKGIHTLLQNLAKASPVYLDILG
# test.method.notes: Tyrosine kinase inhibition assay
# Type: biochemical
# test.conditions: NTRK2 (TRKB); single concentration 1.0 μM; read-out: percent inhibition
Entries and their measured inhibition at 1 µM follow.

>  <molecule>
COc1cc2nccc(Oc3ccc(NC(=O)C4(NC(=O)c5ccc(F)cc5)CC4)cc3F)c2cc1Oc1c(F)cc(N)cc1F

>  <inhibition at 1 µM (%)>
88

$$$$
>  <molecule>
COc1cc2nccc(Oc3ccc(NC(=O)C4(NC(=O)c5ccc(F)cc5)CC4)cc3F)c2cc1Oc1ccc(N)cc1F

>  <inhibition at 1 µM (%)>
73

$$$$
>  <molecule>
COc1cc2nccc(Oc3ccc(NC(=O)C4(C(=O)Nc5ccc(F)cc5)CC4)cc3F)c2cc1Oc1ccc(N)cc1F

>  <inhibition at 1 µM (%)>
112

$$$$
>  <molecule>
COc1cc2nccc(Oc3ccc(NC(=O)C4(C(=O)Nc5ccc(F)cc5)CC4)cc3)c2cc1OC [Cabozantinib, reference compound]

>  <inhibition at 1 µM (%)>
95

$$$$
>  <molecule>
COc1cc2nccc(Oc3ccc(NC(=O)C4(NC(=O)c5ccc(F)cc5)CC4)cc3F)c2cc1OC

>  <inhibition at 1 µM (%)>
23

$$$$
